B1: LINE1-full (parent)
chain: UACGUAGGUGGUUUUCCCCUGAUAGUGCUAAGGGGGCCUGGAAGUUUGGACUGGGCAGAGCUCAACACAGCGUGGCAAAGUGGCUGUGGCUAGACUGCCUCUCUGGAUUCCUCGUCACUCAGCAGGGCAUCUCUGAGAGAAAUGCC

- Variants of: B1
- ASSAY_SUMMARY: self-cleavage, relative activity (ratio to wild type); higher = more cleavage; in vitro, sequencing; the parent is a self-cleaving ribozyme
EXPERIMENTAL_ENDPOINT: self-cleavage
Lab note: jot down the number only; don't add units.

Give the reported self-cleavage for this variant. A22G G137A 1.52

Give the reported self-cleavage for this variant. U91C A117G 0.78

Give the reported self-cleavage for this variant. U81A U115C 2.44

Give the reported self-cleavage for this variant. G97A C111U 0.07

Give the reported self-cleavage for this variant. G35U U102A 1.8

Give the reported self-cleavage for this variant. G36U A141G 0.91

Give the reported self-cleavage for this variant. G49A A77U 0.86

Give the reported self-cleavage for this variant. G4A U45C 0.57

Give the reported self-cleavage for this variant. G58A U134C 0.01

Give the reported self-cleavage for this variant. A42G A65G 0.14

Give the reported self-cleavage for this variant. U1A U39C 1.2
